The measurements presented in this section are drawn from ChEMBL document CHEMBL5303304.

test system: U2OS; test: Incucyte cell viability with U2OS; type: toxicity, cell-based; details: human, 18 h, 10 µM, compound concentration 10 uM, replicate number 1; further: unitless GR value; below 1 slowed growth and below 0 cell loss
measure: Growth Rate
Enter a number only.

# lookup: Growth Rate of "NC1(c2ccc(-c3nc4c(O)ccnn4c3-c3ccccc3)cc2)CCC1"
0.66

# lookup: Growth Rate of "COC[C@@H](C)N[C@H]1CC[C@H](Nc2cc(-c3cccc(NCC4(C#N)CCOCC4)n3)c(Cl)cn2)CC1"
0.59

# lookup: Growth Rate of "Fc1ccc(Cl)cc1-c1nc(Nc2ccncc2)c2nccnc2n1"
0.67

# lookup: Growth Rate of "CN1CCN(C(=O)c2ccc3cc2OCCOCCNc2ccn4ncc-3c4n2)CC1"
0.81

# lookup: Growth Rate of "OC(c1ccc(-c2ccc(CN3CCN(Cc4ccncc4)CC3)cc2)c(F)c1)(C(F)(F)F)C(F)(F)F"
0.93

# lookup: Growth Rate of "Cl.Cl.Nc1nccc(-c2c(-c3ccc(F)cc3)ncn2C2CCCCC2)n1"
0.93

# lookup: Growth Rate of "O=C([O-])c1cc2cc(Cc3cccnc3)ccc2o1.[Na+]"
1

# lookup: Growth Rate of "COc1cc2ncnc(Nc3cccc(O)c3)c2cc1OC"
0.88

# lookup: Growth Rate of "CC(=O)N(CCN(C)C)c1ccc(N/C(=C2\C(=O)Nc3cc(Cl)ccc32)c2ccccc2)cn1"
0.02

# lookup: Growth Rate of "CCN1CCN(Cc2ccc(NC(=O)c3ccc(C)c(NC(=O)c4cncc(-c5cccs5)c4)c3)cc2C(F)(F)F)CC1"
-0.59

# lookup: Growth Rate of "CN(CCCCCCC1=C(c2cc(F)cc(F)c2)CCCc2cc(O)ccc21)CCCCS(=O)(=O)CCCC(F)(F)F"
-0.87

# lookup: Growth Rate of Cl.NCC(O)c1ccc(O)cc1 (centres undefined) [OCTOPAMINE HYDROCHLORIDE]
0.83

# lookup: Growth Rate of "Cn1cc(NC(=O)c2ccc3nc4n(c3c2)CCCNC4=O)nc1C(=O)NC1CCCC1"
0.95

# lookup: Growth Rate of "COc1ncc(-c2cc(-c3ncc(CN4C[C@@H](C)O[C@@H](C)C4)o3)c3cn[nH]c3c2)cc1NS(C)(=O)=O"
0.72

# lookup: Growth Rate of "Cn1cc(-c2ccc(N(C(=O)NCc3ccccc3)[C@H]3CC[C@H](Nc4ccc(C#N)cn4)CC3)cc2)ccc1=O"
0.12

# lookup: Growth Rate of "CC(C)NC(=O)[C@H]1CCC[C@H]1Nc1nc(Nc2ccc(CN(C)C)cc2)ncc1Br.Cl"
0.3

# lookup: Growth Rate of O=C(Nc1ccc(Oc2ccc(Cl)cc2)c(Cl)c1)c1cc(I)cc(I)c1O [RAFOXANIDE]
0.88

# lookup: Growth Rate of "Clc1ccc(-c2nc3sccn3c2/C=N/OCc2ccc(Cl)c(Cl)c2)cc1"
0.87

# lookup: Growth Rate of "Cl.Cl.c1ccc2c(-c3cnn4cc(-c5ccc(N6CCNCC6)cc5)cnc34)ccnc2c1"
-0.35

====

test system: U2OS; assay: Incucyte cell viability with U2OS; type: toxicity, cell-based; conditions: human, 0 h, 10 µM, compound concentration 10 uM, replicate number 2; further: unitless GR value; below 1 slowed growth and below 0 cell loss
Consider the cut-off -0.7. If the recorded Growth Rate is strictly smaller, the label is 1; if not, the label is -1.

Solved entries (count: 5):
INSERT INTO assay_data (chemical_string, system, class) VALUES
  ('CC1(C)CCC(CN2CCN(c3ccc(C(=O)NS(=O)(=O)c4ccc(NCC5CCOCC5)c([N+](=O)[O-])c4)c(Oc4cnc5[nH]ccc5c4)c3)CC2)=C(c2ccc(Cl)cc2)C1', 'U2OS', -1),
  ('O=C(/N=c1\sccn1Cc1ccccc1)c1c[nH]c2ncccc12', 'U2OS', 1),
  ('Cc1c(N2CCCC2)nc2ccc(Br)cc2c1C(=O)NC[C@H](CCC(=O)O)c1ccccc1Cl.Cl.O', 'U2OS', -1),
  ('Cn1cncc1-c1cn(-c2cccc(C(=O)Nc3cccc(C(F)(F)F)c3)c2)nn1', 'U2OS', -1),
  ('O=C(N[C@H]1CN2CCC1CC2)c1ccc(Cl)cc1', 'U2OS', -1);

Quick check: does "C=C(F)C(=O)N1CCN(c2nc(OC[C@@H]3CCCN3C)nc3c2CCN(c2cccc4cccc(Cl)c24)C3)C[C@@H]1CC#N" have Growth Rate under -0.7?
1

Quick check: does "O=C(NCc1cccc(O)c1)Nc1nc(-c2ccncc2)cs1" have Growth Rate under -0.7?
1

Quick check: does "COc1ccc(CSc2nnc(-c3ccc4ncsc4c3)o2)cc1C(F)(F)F" have Growth Rate under -0.7?
-1
